# parental ratio annotations
TARGET: human CTLA-4 (human) (UniProt P16410)
Sequence (P16410 36-223): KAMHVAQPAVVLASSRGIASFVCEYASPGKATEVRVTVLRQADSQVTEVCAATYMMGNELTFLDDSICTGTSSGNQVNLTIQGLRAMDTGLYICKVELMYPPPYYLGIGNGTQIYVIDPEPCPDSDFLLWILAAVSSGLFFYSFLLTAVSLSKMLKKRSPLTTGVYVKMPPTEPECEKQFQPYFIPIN
ASSAY_OVERVIEW: flow cytometry, Expi293F cells transfected with CTLA-4

Example entries begin here.
>  <BINDER>
CD80 I67T/L70Q/A91G/I118V/T120S ECD-Fc (Fc fusion) VIHVTKEVKEVATLSCGHNVSVEELAQTRIYWQKEKKMVLTMMSGDMNIWPEYKNRTIFDITNNLSTVIQALRPSDEGTYECVVLKYEKDGFKREHLAEVTLSVKADFPTPSISDFEVPSSNIRRIICSTSGGFPEPHLSWLENGEELNAINTTVSQDPETELYAVSSKLDFNMTTNHSFMCLIKYGHLRVNQTFHWNTTKQEHFPDN

>  <parental ratio>
0.77

$$$$
>  <BINDER>
CD80 A91G/F92L/F108L/I118V/T120S ECD-Fc (Fc fusion) VIHVTKEVKEVATLSCGHNVSVEELAQTRIYWQKEKKMVLTMMSGDMNIWPEYKNRTIFDITNNLSIVILALRPSDEGTYECVVLKYEKDGLKREHLAEVTLSVKADLPTPSISDFEVPSSNIRRIICSTSGGFPEPHLSWLENGEELNAINTTVSQDPETELYAVSSKLDFNMTTNHSFMCLIKYGHLRVNQTFNWNTTKQEHFPDN

>  <parental ratio>
0.61

$$$$

Pending binder:
## Task Return parental ratio for the following binder: CD80 S44P/L70Q/A91G/T130A ECD-Fc (Fc fusion) VIHVTKEVKEVATLSCGHNVSVEELAQTRIYWQKEKKMVLTMMPGDMNIWPEYKNRTIFDITNNLSIVIQALRPSDEGTYECVVLKYEKDGFKREHLAEVTLSVKADFPTPSISDFEIPTSNIRRIICSASGGFPEPHLSWLENGEELNAINTTVSQDPETELYAVSSKLDFNMTTNHSFMCLIKYGHLRVNQTFNWNTTKQEHFPDN
## Result 0.64

These entries and their values trace back to patent US20220177587A1.
